details: buffer; pH 7.4; 200.0 µM
quantity measured: solubility kinetic

What the record says about Cc1nc2sccn2c(=O)c1CCN1CCC(=C(c2ccc(F)cc2)c2ccc(F)cc2)CC1 : solubility kinetic is 12.2 µg/mL

What the record says about Cc1ccc(C(=O)NCc2ccco2)o1 : solubility kinetic is > 30.8 µg/mL

What the record says about CCOc1c(Cl)cc(CNCc2ccncc2)cc1OC.Cl : solubility kinetic is 46.1 µg/mL

What the record says about O=C1CC2c3ccccc3C1C1C(=O)N(CCO)C(=O)C21 (stereo unspecified) : solubility kinetic is > 42.8 µg/mL

What the record says about Cc1ccc(-c2c(C)sc3nc[nH]c(=O)c23)cc1C : solubility kinetic is 39.7 µg/mL

What the record says about COc1ccc(-c2nnc(SCC(=O)Nc3c(Cl)cc(Cl)cc3C(=O)O)o2)cc1 : solubility kinetic is > 68.1 µg/mL

From: PubChem BioAssay AID1996
